Data credit: the supplement of paper PMC8967900

In this section, each of the compounds is paired with its reported selective drug sensitivity score.
# System: TANOUE
# assay-comment: selective drug sensitivity score (sDSS, relative to normal bone marrow) (sDSS (score)); higher = more potent and effective on the cell line relative to normal bone marrow cells;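 also: ALL cell lines in 384-well plates, five doses spanning 10,000-fold, each plate scaled between vehicle and 100 µmol/L benzalkonium chloride controls, sDSS an adapted area-under-curve metric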
# cond: 72 h
observable: selective drug sensitivity score

1. CC#CC(=O)N1CCC[C@H]1c1nc(-c2ccc(C(=O)Nc3ccccn3)cc2)c2c(N)nccn12 [Acalabrutinib] (top concentration 1000 nM)
-0.1
2. CNC(=O)c1ccc2cc([C@@]3(O)CCn4cncc43)ccc2c1 [Orteronel] (top concentration 10000 nM)
0
3. O=C(NC1CCNCC1)c1n[nH]cc1NC(=O)c1c(Cl)cccc1Cl [AT7519] (top concentration 10000 nM)
-17.8
4. COc1ccccc1S(=O)(=O)Nc1ccc2c(c1)CN(C)C(=O)N2 [PFI-1] (top concentration 30000 nM)
-3.2
5. COc1ccc(S(=O)(=O)Nc2cccnc2Nc2ccc(O)cc2)cc1 [ABT-751] (top concentration 10000 nM)
-3.48
6. O=c1[nH]cc(F)c(=O)[nH]1 [Fluorouracil] (top concentration 10000 nM)
-0.64
7. CCN(CC)C(=S)SSC(=S)N(CC)CC [Disulfiram(+CuCl2)] (top concentration 50000 nM)
-1.62
8. CC(C)Oc1ccc(C(=O)N[C@H](CNC(=O)CN(C)C)Cc2ccc(-c3cn4cccc([C@H](C)O)c4n3)cc2)cc1Cl (top concentration 10000 nM)
-9.32
9. Cc1cn(-c2cc(NC(=O)c3ccc(C)c(Nc4nccc(-c5cnccn5)n4)c3)cc(C(F)(F)F)c2)cn1 [Radotinib] (top concentration 10000 nM)
1.3
10. CNC(=O)c1cccc2cc(Oc3ccnc4cc(OCC5(N)CC5)c(OC)cc34)ccc12 [Lucitanib] (top concentration 10000 nM)
0.28
11. CC(C)Cn1cnc2c(N)nc3ccccc3c21 [Imiquimod] (top concentration 2500 nM)
0.1
12. O=C(Nc1ccncc1)C(=O)c1cn(Cc2ccc(Cl)cc2)c2ccccc12 [Indibulin] (top concentration 10000 nM)
-2.76
13. C[C@@H](Oc1cc(-c2cnn(C3CCNCC3)c2)cnc1N)c1c(Cl)ccc(F)c1Cl [Crizotinib] (top concentration 1000 nM)
-0.54
14. O=C(Nc1cccnc1)N1CCC(Cc2cccc(Oc3ccc(C(F)(F)F)cn3)c2)CC1 [PF-3845] (top concentration 10000 nM)
3.66

====

# Test system: CCRF-CEM
# assay-comment: selective drug sensitivity score (sDSS, relative to normal bone marrow) (sDSS (score)); higher = more potent and effective on the cell line relative to normal bone marrow cells
# cond: 72 h
Decide using selective drug sensitivity score: a value greater than or equal to 0 is YES, a smaller one is NO.

1) COc1cc2ncnc(Nc3cccc(Cl)c3F)c2cc1OC(=O)N1CCN(C)C[C@H]1C [AZD3759] (top concentration 1000 nM)
NO
2) Nc1ncn([C@@H]2O[C@H](CO)[C@@H](O)[C@H]2O)c(=O)n1 [Azacitidine] (top concentration 10000 nM)
YES
3) CC1(C)NC(=O)N(c2ccc([N+](=O)[O-])c(C(F)(F)F)c2)C1=O [Nilutamide] (top concentration 10000 nM)
NO
4) Cc1nc(-c2cn3c(n2)-c2ccc(-c4cnn(C(C)(C)C(N)=O)c4)cc2OCC3)n(C(C)C)n1 [Taselisib] (top concentration 1000 nM)
YES
5) COCCNCc1ccc(-c2cc3nccc(Oc4ccc(NC(=S)NC(=O)Cc5ccc(F)cc5)cc4F)c3s2)nc1 [Glesatinib] (top concentration 2500 nM)
NO
6) O=C(O)C(=O)O.[NH-][C@@H]1CCCC[C@H]1[NH-].[Pt+2] [Oxaliplatin] (top concentration 100000 nM)
YES
7) CC(=O)Nc1cccc(-n2c(=O)n(C3CC3)c(=O)c3c(Nc4ccc(I)cc4F)n(C)c(=O)c(C)c32)c1 [Trametinib] (top concentration 250 nM)
NO
